Each entry below lists one item and its recorded Ki value.
SYSTEM_UNDER_TEST: Coagulation factor X (Homo sapiens, UniProt P00742)
Sequence (P00742 41-179 limits assumed): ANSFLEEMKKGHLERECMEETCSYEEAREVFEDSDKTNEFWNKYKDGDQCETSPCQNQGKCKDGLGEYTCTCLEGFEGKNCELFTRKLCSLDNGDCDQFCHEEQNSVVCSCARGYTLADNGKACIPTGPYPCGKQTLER
Sequence (P00742 235-488 limits assumed): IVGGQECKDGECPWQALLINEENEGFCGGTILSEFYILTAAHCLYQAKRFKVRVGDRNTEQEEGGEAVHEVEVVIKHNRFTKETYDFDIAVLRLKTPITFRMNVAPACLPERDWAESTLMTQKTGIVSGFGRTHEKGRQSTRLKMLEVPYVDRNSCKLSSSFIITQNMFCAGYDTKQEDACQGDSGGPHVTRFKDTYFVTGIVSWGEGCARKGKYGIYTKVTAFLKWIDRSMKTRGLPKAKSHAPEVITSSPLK
ASSAY_PROCEDURE: Inhibitory activity against coagulation factor X
// return numeric value only (unit: µM, not printed)

- COMPOUND: "Cc1ccc(NS(=O)(=O)Cc2ccccc2)c(=O)n1CC(=O)NCC1CCc2nn(C)cc2C1 (centres undefined)"
  PARAMETER_MEASURED: "Ki"
  VALUE: 95

For the compound Cc1ccc(NS(=O)(=O)Cc2ccccc2)c(=O)n1CC(=O)NC1CCc2nn(C)cc2C1 (centres undefined) , what Ki is on record?
90.2

For the compound Cc1ccc(NS(=O)(=O)Cc2ccccc2)c(=O)n1CC(=O)NC1CCc2n[nH]cc2C1 (centres undefined) , what Ki is on record?
99

For the compound Cc1ccc(NS(=O)(=O)Cc2ccccc2)c(=O)n1CC(=O)NCC1CCc2n[nH]cc2C1 (centres undefined) , what Ki is on record?
103
